Reference for the values: ChEMBL document CHEMBL3039007

Overview of reported residual activity across a group of molecules:
# TARGET_OR_TEST_SYSTEM: Solute carrier organic anion transporter family member 1B3 (Homo sapiens)
# Sequence (Q9NPD5 whole entry): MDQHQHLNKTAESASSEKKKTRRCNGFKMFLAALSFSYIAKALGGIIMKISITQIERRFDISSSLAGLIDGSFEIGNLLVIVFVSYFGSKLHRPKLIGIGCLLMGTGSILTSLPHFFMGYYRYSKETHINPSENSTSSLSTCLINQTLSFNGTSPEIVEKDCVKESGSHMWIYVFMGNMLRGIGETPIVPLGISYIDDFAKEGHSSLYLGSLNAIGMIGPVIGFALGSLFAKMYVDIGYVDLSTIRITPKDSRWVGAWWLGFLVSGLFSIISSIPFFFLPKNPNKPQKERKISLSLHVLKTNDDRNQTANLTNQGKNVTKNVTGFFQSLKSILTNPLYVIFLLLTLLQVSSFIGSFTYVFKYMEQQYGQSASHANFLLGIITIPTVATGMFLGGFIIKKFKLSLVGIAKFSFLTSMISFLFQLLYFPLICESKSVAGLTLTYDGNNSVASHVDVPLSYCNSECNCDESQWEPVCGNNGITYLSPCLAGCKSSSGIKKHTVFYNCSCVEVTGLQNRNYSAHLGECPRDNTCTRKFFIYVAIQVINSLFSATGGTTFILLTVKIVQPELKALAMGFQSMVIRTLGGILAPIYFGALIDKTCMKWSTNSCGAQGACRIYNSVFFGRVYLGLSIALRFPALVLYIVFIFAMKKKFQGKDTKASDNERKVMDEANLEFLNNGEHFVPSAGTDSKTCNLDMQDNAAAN
# SETTINGS: chinese hamster, cho, 10 µM

{"MOLECULE": "CCC/C=C1\\OC(=O)C2=C1CCC=C2 [LIGUSTILIDE]", "PROPERTY": "residual activity", "OBSERVED": "107.5%"}
{"MOLECULE": "O=C(O)c1c2ccccc2cc2ccccc12", "PROPERTY": "residual activity", "OBSERVED": "87.88%"}
{"MOLECULE": "CCOC(=O)c1c(C)cc(O)c(C=O)c1O [ETHYL HEMATOMMATE]", "PROPERTY": "residual activity", "OBSERVED": "77.96%"}
{"MOLECULE": "CCOC(=O)c1c(C)cc(OC)cc1O [ETHYL EVERNINATE]", "PROPERTY": "residual activity", "OBSERVED": "102.6%"}
{"MOLECULE": "O=C(O)CN(CC(=O)O)Cc1cc2c(cc1O)Oc1cc(O)c(CN(CC(=O)O)CC(=O)O)cc1C21OC(=O)c2ccccc21", "PROPERTY": "residual activity", "OBSERVED": "121.3%"}
{"MOLECULE": "Cc1c(N(C)CS(=O)(=O)[O-])c(=O)n(-c2ccccc2)n1C.[Na+] [DIPYRONE SODIUM]", "PROPERTY": "residual activity", "OBSERVED": "89.51%"}
{"MOLECULE": "Nc1ccc(S(=O)(=O)Nc2ccnn2-c2ccccc2)cc1", "PROPERTY": "residual activity", "OBSERVED": "98.59%"}
{"MOLECULE": "Cl.O=c1n(CCCN2CCN(c3cccc(Cl)c3)CC2)nc2ccccn12 [TRAZODONE HYDROCHLORIDE]", "PROPERTY": "residual activity", "OBSERVED": "111.6%"}
{"MOLECULE": "C[C@@H]1C[C@H]2[C@@H]3CCC4=CC(=O)C=C[C@]4(C)[C@@]3(F)[C@@H](O)C[C@]2(C)[C@@]1(O)C(=O)CO", "PROPERTY": "residual activity", "OBSERVED": "103.9%"}

Proceeding to the next molecule to report its residual activity.
Q: Look up and report measured residual activity for this entry: CC(C)=CCc1c2c(c3occ(-c4ccc(O)cc4)c(=O)c3c1O)C=CC(C)(C)O2
Result: 88.68%
